- System: KB-3-1
- test.protocol: Cytotoxic Profiling of Annotated Libraries Using Quantitative High-Throughput Screening (AID 1296008); further: nearly all actives have a fitted effect of over 60% in size
- run.parameters: Five cell lines viability, CellTiter-Glo ATP luminescence, 48-72 h
Records with an inconclusive call do not appear. Active and inactive are the calls of the source. The call rests on the fitted dose curve; in most records, active means well fitted inhibition curve with a large enough effect; inconclusive means small, poorly fitted or top-dose-only effect; inactive means flat fitted curve, though single readings scatter.
Answer with one of the outcomes given here: active, inactive

# molecule, group.label
measured = [
    ("NC(N)=NC(=O)c1nc(Cl)c(N)nc1N", "inactive"),
    ("Cc1cccc(-c2[nH]c(C(C)(C)C)nc2-c2ccc3nccnc3c2)n1", "active"),
    ("CCOc1ccn(-c2ccc(F)cc2)c(=O)c1C(=O)Nc1ccc(Oc2ccnc(N)c2Cl)c(F)c1", "active"),
    ("Cc1ccc(-n2nc(C(C)(C)C)cc2NC(=O)Nc2ccc(OCCN3CCOCC3)c3ccccc23)cc1", "inactive"),
    ("COc1ccc([C@@H]2CC(=O)c3c(O)cc(O[C@@H]4O[C@H](CO[C@@H]5O[C@@H](C)[C@H](O)[C@@H](O)[C@@H]5O)[C@@H](O)[C@H](O)[C@@H]4O)cc3O2)cc1O", "inactive"),
]

Test call, this molecule: O=c1[nH]c(-c2ccc(C(F)(F)F)cc2)nc2c1CSCC2
inactive

Test call, this molecule: O=C(C=Cc1ccc(/C=C/C(=O)Nc2ccc(C3=NCCN3)cc2)cc1)Nc1ccc(C2=NCCN2)cc1
inactive

Test call, this molecule: Cc1c(CN2CCN(C(=O)C(C)C)CC2)sc2c(N3CCOCC3)nc(-c3cnc(N)nc3)nc12
active

Test call, this molecule: COc1cc(F)c(F)c(Nc2ccc(I)cc2F)c1NS(=O)(=O)C1(C[C@H](O)CO)CC1
inactive

Test call, this molecule: CC1(C)SCCN(S(=O)(=O)c2ccc(OCC#CCO)cc2)[C@@H]1C(=O)NO
inactive

Test call, this molecule: CNC[C@H](O)c1cccc(O)c1
inactive

Test call, this molecule: CC[C@H](Nc1ncnc2nc[nH]c12)c1nc2cccc(F)c2c(=O)n1-c1ccccc1
inactive

Test call, this molecule: Cc1cc(SCc2sc(-c3ccc(C(F)(F)F)cc3)nc2C)ccc1OCC(=O)O
inactive

Test call, this molecule: COc1cc(Nc2ncc3c(n2)-c2ccc(Cl)cc2C(c2c(F)cccc2OC)=NC3)ccc1C(=O)O
active

Test call, this molecule: Cc1ccccc1C(OCCN(C)C)c1ccccc1 (stereo not given)
inactive

Test call, this molecule: Nc1ncnc2nc(-c3ccc(N4CCOCC4)nc3)cc(-c3cccc(Br)c3)c12
inactive
